Provide the recorded EC50 for the entries that follow.
molecular target: Short transient receptor potential channel 4 (Mus musculus, UniProt Q9QUQ5); test: mouse TRPC4 channel activators, dose response, cell-based, HEK293 TRPC4/mu-opioid, Fluo-4 calcium (AID 434937); type: functional
The source made the active and inactive calls.

compound | tested-on | EC50
NC1=NC2(CCN(Cc3ccccc3)CC2)n2c(nc3ccccc32)N1 | Short transient receptor potential channel 4 (Mus musculus, UniProt Q9QUQ5) | 299 nM (active)
CC1CC(C)CN(CCCNC(=O)Cn2cccc2C(=O)c2ccccc2)C1 (stereo unspecified) | Short transient receptor potential channel 4 (Mus musculus, UniProt Q9QUQ5) | 1190 nM (active)
O=[N+]([O-])c1cc2c(cc1CNCCc1ccc3c(c1)OCO3)OCO2 | Short transient receptor potential channel 4 (Mus musculus, UniProt Q9QUQ5) | 3350 nM (active)
CCOC(=O)C1CCCN(C(c2ccccn2)c2c(C)[nH]c3ccccc23)C1 (stereo unspecified) | Short transient receptor potential channel 4 (Mus musculus, UniProt Q9QUQ5) | 5310 nM (active)
Clc1ccc2nc(N3CCNCC3)nc(-c3ccccc3)c2c1 | Short transient receptor potential channel 4 (Mus musculus, UniProt Q9QUQ5) | 5960 nM (active)

// moving on: another record for EC50
Problem: Return reported EC50. Input compound: `CCn1c(N2CCN(C(=O)Nc3ccc(F)cc3)CC2)nc2ccccc21`
Result: 944 nM (active)

---

molecular target: Estrogen receptor beta (Homo sapiens, UniProt Q92731); assay: ERβ–SRC-3 coactivator interaction inhibitors, confirmation, orthogonal assay, biochemical, ELISA, streptavidin-HRP readout (AID 1060)
Sequence (Q92731 whole entry): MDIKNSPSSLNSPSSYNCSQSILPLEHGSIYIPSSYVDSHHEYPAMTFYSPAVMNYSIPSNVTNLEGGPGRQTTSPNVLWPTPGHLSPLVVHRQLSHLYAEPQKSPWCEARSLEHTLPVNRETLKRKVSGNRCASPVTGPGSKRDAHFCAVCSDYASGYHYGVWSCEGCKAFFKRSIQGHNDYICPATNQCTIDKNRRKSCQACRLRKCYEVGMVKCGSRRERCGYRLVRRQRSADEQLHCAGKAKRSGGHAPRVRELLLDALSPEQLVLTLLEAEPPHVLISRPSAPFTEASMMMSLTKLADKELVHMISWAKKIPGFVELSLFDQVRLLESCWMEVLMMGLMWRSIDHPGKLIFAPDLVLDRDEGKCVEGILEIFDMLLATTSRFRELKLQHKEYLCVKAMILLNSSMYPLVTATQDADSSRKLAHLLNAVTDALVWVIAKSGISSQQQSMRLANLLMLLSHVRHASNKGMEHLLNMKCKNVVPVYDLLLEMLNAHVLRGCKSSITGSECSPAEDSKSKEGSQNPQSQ
Provide the recorded IC50 for the entries that follow.

line-notation | IC50
Cc1ccc(/C=c2\sc3nc(-c4ccccc4Br)nn3c2=O)o1 | 61.1 nM (not active)
COc1ccc(NC(=O)CN(c2ccccc2)S(=O)(=O)N(C)C)cc1OC | > 109000 nM (not active)
O=C(Nc1ccc2c(c1)OCO2)c1cccc2c1C(=O)N(Cc1cccnc1)C2 | 3130 nM (not active)

Below are some molecules; for each one, tell me its IC50.
1. Cc1ccc(Cc2cncc(O)c2)cc1S(=O)(=O)O
2. Cc1ccc(S(=O)(=O)Cc2ccc(C(=O)N3CCc4ccccc4C3)o2)cc1

Result:
1: 353 nM (not active); 2: < 23 nM (not active)

---

biological target: Peroxisome proliferator-activated receptor gamma/Nuclear receptor coactivator 1 (Homo sapiens); experiment: TR-FRET dose response biochemical High Throughput Screening assay for agonists of the steroid receptor coactivator 1 (SRC-1) recruitment by the peroxisome proliferator-activated receptor gamma (PPAR gamma): non-selective agonists. [Related pubchem assays (depositor defined):AID1300, AID1808, AID504735, AID631]; assay type: protein assay
Calls of active or inactive are those of the source.
Classes to choose from: active, inactive

Field: example entries. Status: answers known.
compound | discrete-label
Cc1ccc(C(=O)C2=C(O)C(=O)N(c3ncccn3)C2c2ccc(Cl)cc2)o1 (stereo unspecified) | inactive
Cc1ccccc1-c1nnc(S)o1 | inactive
O=c1c2cn[nH]c2[nH]c(=S)n1-c1cccc2ccccc12 | inactive
N#Cc1c(Cl)nc(SCc2ccccc2)nc1-c1ccccc1 | active
COc1cccc(CNC(=O)CSc2cc(=O)n(C)c3ccccc23)c1 | inactive

Problem: State the result this test recorded for `CCn1c(=O)cc(SCC(=O)N2CCCCC2)c2ccccc21` .
Result: inactive

---

Provide the recorded EC50 for the entries that follow.
target: Luciferin 4-monooxygenase (Photinus pyralis, UniProt P08659); assay: Counter Screen for Luciferase-based Assay Positives. [Related pubchem assays: 620, 618, 411 ]
Sequence (P08659 whole entry): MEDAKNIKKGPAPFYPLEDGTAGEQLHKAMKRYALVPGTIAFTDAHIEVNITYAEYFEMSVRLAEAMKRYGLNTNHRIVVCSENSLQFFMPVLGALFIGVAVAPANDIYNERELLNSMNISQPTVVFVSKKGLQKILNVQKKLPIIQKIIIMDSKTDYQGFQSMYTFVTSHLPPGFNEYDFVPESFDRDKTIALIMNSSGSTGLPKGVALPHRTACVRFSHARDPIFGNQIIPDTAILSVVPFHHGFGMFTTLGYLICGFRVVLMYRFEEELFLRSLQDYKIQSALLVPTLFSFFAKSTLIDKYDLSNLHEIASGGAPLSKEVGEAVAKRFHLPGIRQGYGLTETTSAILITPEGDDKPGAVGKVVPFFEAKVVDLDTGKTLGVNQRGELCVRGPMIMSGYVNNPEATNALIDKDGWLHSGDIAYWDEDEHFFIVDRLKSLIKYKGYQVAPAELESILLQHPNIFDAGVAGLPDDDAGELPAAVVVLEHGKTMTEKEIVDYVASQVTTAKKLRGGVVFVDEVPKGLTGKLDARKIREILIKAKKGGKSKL
Activity calls are given as the source filed them.

Worked cases, EC50 given:
molecule | EC50
COc1ccc(C(=O)Nc2nnc(-c3ccco3)s2)cc1 | > 100 µM (not active)
Cc1ccccc1Cn1nnc(-c2cccc(C(=O)O)c2)n1 | > 100 µM (not active)
O=C(Nc1ccc(N2CCCCC2)cc1)c1ccccc1 | 1.28 µM (active)
CC1=NC(=O)C(N=Nc2cccc(C(=O)O)c2)N1c1ccccc1 (stereo unspecified) | 0.67 µM (active)
Oc1c(CN2CCCCC2)cc(COCc2ccccc2)c2cccnc12 | > 100 µM (not active)

// moving on: another record for EC50
Problem: Return reported EC50. Input molecule: `OC1=C(/C=N/c2ccc3c(c2)OCO3)CCc2ccccc21`
Result: 2.31 µM (active)

---

target: Voltage-gated N-type calcium channel alpha-1B subunit/Amyloid beta A4 precursor protein-binding family A member 1 (Homo sapiens, UniProt Q00975+Q02410); assay type: protein assay
Sequence (Q00975 whole entry): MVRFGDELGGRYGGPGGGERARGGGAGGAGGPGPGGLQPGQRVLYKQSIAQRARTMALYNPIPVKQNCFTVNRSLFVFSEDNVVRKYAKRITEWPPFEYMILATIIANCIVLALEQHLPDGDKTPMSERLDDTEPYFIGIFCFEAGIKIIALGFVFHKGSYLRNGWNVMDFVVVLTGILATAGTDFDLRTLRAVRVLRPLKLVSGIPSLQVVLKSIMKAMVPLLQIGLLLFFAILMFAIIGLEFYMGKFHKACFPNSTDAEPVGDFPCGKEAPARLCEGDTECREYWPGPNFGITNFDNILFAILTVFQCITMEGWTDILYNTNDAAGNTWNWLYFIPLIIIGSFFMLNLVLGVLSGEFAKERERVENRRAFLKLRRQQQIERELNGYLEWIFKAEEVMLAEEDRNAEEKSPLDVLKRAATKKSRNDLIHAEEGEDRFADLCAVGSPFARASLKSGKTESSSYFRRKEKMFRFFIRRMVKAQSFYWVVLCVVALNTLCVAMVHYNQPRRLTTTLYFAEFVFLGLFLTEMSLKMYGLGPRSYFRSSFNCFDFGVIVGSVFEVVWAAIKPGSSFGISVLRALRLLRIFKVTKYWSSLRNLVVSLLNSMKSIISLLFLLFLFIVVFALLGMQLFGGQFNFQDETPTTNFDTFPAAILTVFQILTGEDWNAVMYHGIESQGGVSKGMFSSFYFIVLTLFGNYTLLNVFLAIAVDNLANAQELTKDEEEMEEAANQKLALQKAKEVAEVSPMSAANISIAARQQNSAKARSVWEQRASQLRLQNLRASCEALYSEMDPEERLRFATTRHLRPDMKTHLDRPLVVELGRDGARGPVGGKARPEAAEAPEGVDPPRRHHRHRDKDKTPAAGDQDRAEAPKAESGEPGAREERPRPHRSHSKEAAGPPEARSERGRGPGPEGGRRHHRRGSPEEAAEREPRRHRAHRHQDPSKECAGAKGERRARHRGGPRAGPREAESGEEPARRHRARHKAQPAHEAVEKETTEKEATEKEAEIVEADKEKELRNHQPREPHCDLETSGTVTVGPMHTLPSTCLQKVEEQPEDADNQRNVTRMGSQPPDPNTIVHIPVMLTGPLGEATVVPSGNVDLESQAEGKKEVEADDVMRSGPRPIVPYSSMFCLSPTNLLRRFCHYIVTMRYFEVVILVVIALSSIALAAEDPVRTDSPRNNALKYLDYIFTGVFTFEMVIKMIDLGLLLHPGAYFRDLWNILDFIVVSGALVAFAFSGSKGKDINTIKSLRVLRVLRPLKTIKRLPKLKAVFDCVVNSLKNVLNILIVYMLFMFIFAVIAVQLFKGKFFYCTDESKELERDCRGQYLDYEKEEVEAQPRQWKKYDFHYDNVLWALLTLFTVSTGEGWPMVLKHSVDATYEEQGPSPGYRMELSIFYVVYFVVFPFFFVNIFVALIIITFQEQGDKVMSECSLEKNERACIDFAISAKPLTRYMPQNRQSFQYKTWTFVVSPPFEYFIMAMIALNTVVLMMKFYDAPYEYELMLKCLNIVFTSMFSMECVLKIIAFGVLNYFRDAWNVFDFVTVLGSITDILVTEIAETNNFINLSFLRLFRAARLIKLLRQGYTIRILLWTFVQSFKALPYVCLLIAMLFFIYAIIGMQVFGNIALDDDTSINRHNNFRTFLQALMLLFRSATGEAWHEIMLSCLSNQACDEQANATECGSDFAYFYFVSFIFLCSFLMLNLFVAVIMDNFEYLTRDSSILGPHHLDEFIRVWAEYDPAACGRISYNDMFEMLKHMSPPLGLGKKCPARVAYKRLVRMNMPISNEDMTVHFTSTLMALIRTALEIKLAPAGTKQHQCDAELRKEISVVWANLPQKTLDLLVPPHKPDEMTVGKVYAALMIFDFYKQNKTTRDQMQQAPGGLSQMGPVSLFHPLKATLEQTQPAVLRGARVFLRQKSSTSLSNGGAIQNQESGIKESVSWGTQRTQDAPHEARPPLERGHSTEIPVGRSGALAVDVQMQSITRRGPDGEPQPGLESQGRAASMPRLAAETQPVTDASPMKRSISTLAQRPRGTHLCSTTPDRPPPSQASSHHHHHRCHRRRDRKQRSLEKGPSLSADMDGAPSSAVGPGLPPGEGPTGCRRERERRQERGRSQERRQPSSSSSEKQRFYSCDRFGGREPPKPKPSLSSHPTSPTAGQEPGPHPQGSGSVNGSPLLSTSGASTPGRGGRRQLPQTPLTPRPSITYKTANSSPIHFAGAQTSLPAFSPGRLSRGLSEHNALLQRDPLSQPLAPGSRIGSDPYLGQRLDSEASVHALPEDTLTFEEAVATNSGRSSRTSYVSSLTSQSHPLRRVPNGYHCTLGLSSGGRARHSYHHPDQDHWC
Sequence (Q02410 whole entry): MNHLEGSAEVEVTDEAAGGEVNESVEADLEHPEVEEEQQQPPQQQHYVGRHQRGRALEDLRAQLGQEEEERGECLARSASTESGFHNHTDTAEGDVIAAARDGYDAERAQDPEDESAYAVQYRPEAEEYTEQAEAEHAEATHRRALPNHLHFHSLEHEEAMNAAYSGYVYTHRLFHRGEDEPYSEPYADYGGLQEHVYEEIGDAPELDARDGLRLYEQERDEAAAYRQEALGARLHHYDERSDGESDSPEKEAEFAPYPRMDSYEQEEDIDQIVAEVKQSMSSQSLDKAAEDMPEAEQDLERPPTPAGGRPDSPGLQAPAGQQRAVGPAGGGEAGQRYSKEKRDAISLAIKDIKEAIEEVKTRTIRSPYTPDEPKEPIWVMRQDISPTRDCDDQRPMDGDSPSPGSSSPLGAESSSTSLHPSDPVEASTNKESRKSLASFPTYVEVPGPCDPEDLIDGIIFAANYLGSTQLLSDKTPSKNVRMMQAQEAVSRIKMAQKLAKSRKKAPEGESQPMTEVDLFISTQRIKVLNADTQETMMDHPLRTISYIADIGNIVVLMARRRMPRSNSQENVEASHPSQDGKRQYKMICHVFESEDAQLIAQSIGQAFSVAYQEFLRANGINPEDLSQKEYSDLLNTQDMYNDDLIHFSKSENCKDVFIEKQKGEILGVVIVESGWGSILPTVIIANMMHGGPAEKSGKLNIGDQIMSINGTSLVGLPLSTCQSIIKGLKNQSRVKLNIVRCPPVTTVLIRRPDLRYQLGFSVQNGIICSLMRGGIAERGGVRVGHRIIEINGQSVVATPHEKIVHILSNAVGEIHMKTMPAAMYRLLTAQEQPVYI
The source made the active and inactive calls.
Classes to choose from: true = active, false = inactive

compound | discrete-label
Cc1cc(Cl)ccc1/N=c1\ssnc1Cl | true
COc1ccc(N2CSC3=C(C#N)C(c4cc(OC)c(OC)cc4OC)CC(=O)N3C2)c(OC)c1 (stereo unspecified) | true
CCOC(=O)c1cc(-c2ccc(N3CCOCC3)cc2)nn1-c1ccccc1C(=O)O | false
CN(C(=O)COC(=O)c1cc(-c2ccco2)nc2ccccc12)C1CCS(=O)(=O)C1 (stereo unspecified) | true
C=CCOc1ccc(/C=C2\SC(=S)N(N3CCOCC3)C2=O)cc1 | false

Problem: State the result this test recorded for `CCOC(=O)c1ccc(/N=c2\ssnc2Cl)cc1` .
Result: true

---

test system: INS1; experiment: beta cell apoptosis inhibitors, cytokine rescue, dose response, luminescence, retest (AID 449756); assay type: functional, cell-based; conditions: Rattus norvegicus;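 further: cell death triggered by IL-1 beta plus TNF-alpha plus IFN-gamma mixture; protective hits raise ATP signal compared with cytokine alone wells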
Activity calls are given as the source filed them.
Provide the recorded AC50 for the entries that follow.

Worked cases, AC50 given:
compound | AC50
C/C(=N\NC(=O)c1ccc(Cl)c(Cl)c1)c1ccccn1 | 0.278 µM (active)
Cc1sc2ncnc(NCC(O)c3ccccc3)c2c1C (stereo not given) | 5.29 µM (active)
O=C(CCCc1nc(-c2ccc(Cl)cc2)no1)NC1CCCC1 | 10.2 µM (active)

Below are some compounds; for each one, tell me its AC50.
1. O=c1c2ccccc2nc(COc2ccccc2)n1/N=C/c1ccc(O)cc1O
2. CCN(CC)CCOC(=O)c1ccc(N/C=C(/C#N)c2nc(-c3ccc4c(c3)OCO4)cs2)cc1

Result:
["4.63 µM (active)", "11 µM (active)"]

---

target: Kappa-type opioid receptor (Homo sapiens, UniProt P41145); assay type: functional
readout-type: IC50
Number first, unit second: that is the form wanted.

Problem: Return reported IC50. Input compound: CS(=O)(=O)c1sc(C#N)c2c1C(=O)CC(c1ccccc1)C2 (stereo unspecified)
Result: 3.24 µM

---

Provide the recorded IC50 for the entries that follow.
target: Rac GTPase-activating protein 1 (Homo sapiens); assay: MgcRacGAP GTPase-activating activity inhibitors, confirmation, biochemical, ADP Hunter fluorescence, primary and confirmatory (AID 624330); type: functional
Sequence (Q9H0H5 whole entry): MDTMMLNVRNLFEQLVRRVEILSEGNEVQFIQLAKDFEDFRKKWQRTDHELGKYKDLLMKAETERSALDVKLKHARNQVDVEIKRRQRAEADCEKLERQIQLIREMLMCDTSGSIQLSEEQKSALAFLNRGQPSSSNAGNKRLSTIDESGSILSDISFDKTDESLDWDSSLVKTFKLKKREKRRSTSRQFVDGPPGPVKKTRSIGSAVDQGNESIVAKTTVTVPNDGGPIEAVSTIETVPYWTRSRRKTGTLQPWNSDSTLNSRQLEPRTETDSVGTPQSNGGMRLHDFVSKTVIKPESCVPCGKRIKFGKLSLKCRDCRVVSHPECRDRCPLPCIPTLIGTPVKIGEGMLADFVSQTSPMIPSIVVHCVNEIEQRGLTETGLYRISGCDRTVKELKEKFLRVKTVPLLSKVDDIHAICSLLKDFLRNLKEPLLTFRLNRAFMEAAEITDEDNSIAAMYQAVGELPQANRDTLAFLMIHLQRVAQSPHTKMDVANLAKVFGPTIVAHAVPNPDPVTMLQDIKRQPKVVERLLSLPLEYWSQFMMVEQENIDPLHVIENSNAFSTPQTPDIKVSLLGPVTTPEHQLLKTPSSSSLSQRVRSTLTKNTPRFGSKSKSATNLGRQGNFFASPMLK
Activity calls are given as the source filed them.

compound | IC50
COc1ccc(Nc2ccc3ccccc3c2)cc1 | 53.4 µM (active)
O=C(O)C1CCCCC1C(=O)Nc1ccc(S(=O)(=O)N2CCOCC2)cc1 (stereo unspecified) | 150 µM (active)
C=CCN(CC=C)C(=O)C1CCN(Cc2ccc(OCc3ccccc3)cc2)CC1 | 169 µM (active)
O=C1NC(=S)NC1=Cc1ccc(O)cc1 | 9.78 µM (active)
Cc1ccc(NCc2ccco2)cc1C | 123 µM (active)

// moving on: another record for IC50
Problem: Fetch value of IC50 on Rac GTPase-activating protein 1 (Homo sapiens) for `Cn1c(=O)c2c(nc(S)n2CCCc2ccccc2)n(C)c1=O` .
Result: 16.1 µM (active)

---

test system: P388/ADR; assay: cells; assay type: functional; settings: Mus musculus
Structures can show the parent of a compound that is named as a salt. Calls of active or inactive are those of the source.
Classes to choose from: active, inactive

compound | discrete-label
CNNCc1ccc(C(=O)NC(C)C)cc1 [PROCARBAZINE HYDROCHLORIDE] | inactive

Problem: State the result this test recorded for `Nc1ncn([C@H]2C[C@H](O)[C@@H](CO)O2)c(=O)n1` .
Result: active

Problem: State the result this test recorded for CN(C)CC1CC/C(=C\c2ccc(Cl)cc2)C1=O (stereo unspecified) .
Result: active

Problem: State the result this test recorded for `Cc1ccc(S(=O)(=O)Oc2cc(-c3ccccc3)nc3ccccc23)cc1` .
Result: inactive

Problem: State the result this test recorded for `CCCCc1nccc2c(C)c3[nH]c4ccccc4c3cc12` .
Result: inactive

Problem: State the result this test recorded for `CCCCCCCCCCCC[S+](C)C` .
Result: inactive

---

target: X-box-binding protein 1 (Homo sapiens); type: functional, Cricetulus griseus;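 further: confirmatory dose-response counter-screen serving a CHOP assay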
Provide the recorded Absolute IC50 (XBP1) for the entries that follow.
Give bare numbers, in µM.

Worked cases, Absolute IC50 (XBP1) given:
compound | readout-type | scale-unit | observed-result
Cc1ccc(-c2nc3cc(NS(=O)(=O)c4ccc(C)cc4)ccc3o2)cc1 | Absolute IC50 (XBP1) | µM | 10
CCCCn1c(=O)c(C(=O)Nc2cnccn2)c(O)c2ccccc21 | Absolute IC50 (XBP1) | µM | 10

Below are some compounds; for each one, tell me its Absolute IC50 (XBP1).
1. Cc1ccc(-n2c(O)nc3c(C(N)=O)nc(-c4ccc(C)o4)nc32)cc1
2. CCC1CCc2c(sc(NC(=O)c3ccoc3C)c2C(N)=O)C1 (stereo not given)

Result:
[10, 10]
